Parameter: Cmax. Scope: all listed entries.
# assay details: Cmax in CD1 mouse at 10 mg/kg, po administered as single dose by LC/MS/MS analysis
# Format: ADME, organism-based
# Set-up: dose 10 mg/kg, route oral
# condition description: in vivo
State the answer as a number, implicitly in nM.

CN1CCN(c2ccc(OC(F)(F)F)c(Nc3ncc4c(n3)-c3c(c(C(N)=O)nn3CCF)CC4)c2)CC1 :: 260
CN1CCN(c2ccc(OC(F)(F)F)c(Nc3ncc4c(n3)-c3c(c(C(N)=O)nn3C)CC4)c2)CC1 :: 290

Which Cmax value belongs to "C=Cn1nc(C(N)=O)c2c1-c1nc(Nc3cc(N4CCN(C)CC4)ccc3OC(F)(F)F)ncc1CC2" ? 610

----------
# assay details: AUC (0 to infinity) in CD1 mouse at 10 mg/kg, po administered as single dose by LC/MS/MS analysis
# Assay type: ADME, organism-based
# Design: time infinity, dose 10 mg/kg, route oral
# condition description: plasma
endpoint name: AUC(0-inf) (nM·h)
State the answer as a number, implicitly in nM·h.

Answered examples (2):
CN1CCN(c2ccc(OC(F)(F)F)c(Nc3ncc4c(n3)-c3c(c(C(N)=O)nn3C)CC4)c2)CC1 :: 1040
C=Cn1nc(C(N)=O)c2c1-c1nc(Nc3cc(N4CCN(C)CC4)ccc3OC(F)(F)F)ncc1CC2 :: 2150

In the following, a different compound is considered.
Which AUC(0-inf) value belongs to "CN1CCN(c2ccc(OC(F)(F)F)c(Nc3ncc4c(n3)-c3c(c(C(N)=O)nn3CCF)CC4)c2)CC1" ? 192

----------
# target system: ALK tyrosine kinase receptor (Homo sapiens, UniProt Q9UM73)
# Sequence (Q9UM73 whole entry): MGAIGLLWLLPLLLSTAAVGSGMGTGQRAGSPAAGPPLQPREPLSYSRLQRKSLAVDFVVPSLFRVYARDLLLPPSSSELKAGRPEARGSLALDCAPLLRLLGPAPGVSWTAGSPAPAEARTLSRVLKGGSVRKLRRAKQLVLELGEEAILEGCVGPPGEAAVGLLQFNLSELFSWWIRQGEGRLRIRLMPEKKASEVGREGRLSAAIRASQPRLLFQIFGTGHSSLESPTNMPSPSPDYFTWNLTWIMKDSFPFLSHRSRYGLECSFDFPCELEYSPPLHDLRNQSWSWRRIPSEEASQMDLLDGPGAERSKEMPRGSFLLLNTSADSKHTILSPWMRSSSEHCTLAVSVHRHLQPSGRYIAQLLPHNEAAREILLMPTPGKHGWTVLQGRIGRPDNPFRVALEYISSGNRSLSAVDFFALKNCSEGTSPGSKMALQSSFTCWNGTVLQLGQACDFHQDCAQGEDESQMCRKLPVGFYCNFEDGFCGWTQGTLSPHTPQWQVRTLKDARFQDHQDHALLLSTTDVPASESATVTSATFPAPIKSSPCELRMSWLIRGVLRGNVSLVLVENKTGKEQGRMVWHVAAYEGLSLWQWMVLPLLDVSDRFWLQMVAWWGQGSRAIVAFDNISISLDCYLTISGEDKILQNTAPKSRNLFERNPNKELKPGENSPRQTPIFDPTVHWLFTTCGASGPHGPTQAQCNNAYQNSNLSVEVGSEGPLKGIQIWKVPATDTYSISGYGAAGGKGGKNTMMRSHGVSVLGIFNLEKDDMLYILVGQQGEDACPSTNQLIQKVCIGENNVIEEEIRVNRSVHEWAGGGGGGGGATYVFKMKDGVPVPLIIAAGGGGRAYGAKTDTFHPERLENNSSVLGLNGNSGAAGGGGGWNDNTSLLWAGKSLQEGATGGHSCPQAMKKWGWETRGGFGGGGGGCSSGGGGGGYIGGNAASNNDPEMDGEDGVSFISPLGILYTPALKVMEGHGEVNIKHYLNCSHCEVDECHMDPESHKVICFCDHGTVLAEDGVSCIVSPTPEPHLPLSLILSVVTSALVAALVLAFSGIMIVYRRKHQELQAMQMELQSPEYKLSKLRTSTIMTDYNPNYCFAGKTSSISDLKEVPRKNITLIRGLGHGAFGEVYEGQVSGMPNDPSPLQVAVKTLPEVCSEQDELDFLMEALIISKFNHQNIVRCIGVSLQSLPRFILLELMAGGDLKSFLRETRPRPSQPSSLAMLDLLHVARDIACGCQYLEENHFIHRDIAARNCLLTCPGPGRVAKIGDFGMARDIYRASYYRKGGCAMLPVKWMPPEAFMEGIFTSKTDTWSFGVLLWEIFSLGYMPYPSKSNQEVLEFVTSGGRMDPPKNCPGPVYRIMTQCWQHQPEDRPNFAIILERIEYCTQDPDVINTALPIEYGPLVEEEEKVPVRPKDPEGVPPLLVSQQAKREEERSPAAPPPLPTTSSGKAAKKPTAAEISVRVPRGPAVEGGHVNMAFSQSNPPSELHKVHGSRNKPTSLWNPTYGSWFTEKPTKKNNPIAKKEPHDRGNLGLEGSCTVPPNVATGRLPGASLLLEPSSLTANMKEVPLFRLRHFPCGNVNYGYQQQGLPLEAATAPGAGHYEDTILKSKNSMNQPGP
endpoint name: pIC50
Note on pIC50: it is the negative log10 of concentration, concentration in mol/L.

Which pIC50 value belongs to "C=Cn1nc(C(N)=O)c2c1-c1nc(Nc3cc(N4CCN(C)CC4)ccc3OC(F)(F)F)ncc1CC2" ? 5.62

----------
# assay details: Solubility of the compound at 105 Tween 80
# Type: physicochemical
endpoint name: solubility (µg/mL)
State the answer as a number, implicitly in µg/mL.

CN1CCN(c2ccc(OC(F)(F)F)c(Nc3ncc4c(n3)-c3c(c(C(N)=O)nn3CCF)CC4)c2)CC1 :: 2100

In the following, a different compound is considered.
Which solubility value belongs to "Cn1nc(C(N)=O)c2c1-c1nc(Nc3cc(N4CCNCC4)ccc3OC(F)(F)F)ncc1CC2" ? 1100

----------
# target system: Cyclin-dependent kinase 2/cyclin A (Homo sapiens, UniProt P24941)
# assay details: Inhibition of CDK2/Cyclin A
endpoint name: IC50 (nM)
State the answer as a number, implicitly in nM.

Answered examples (2):
Cn1nc(C(N)=O)c2c1-c1nc(Nc3cc(N4CCN(C(=O)N5CCNCC5)CC4)ccc3OC(F)(F)F)ncc1CC2 :: 622
CN1C(C)(C)CC(Nc2ccc(OC(F)(F)F)c(Nc3ncc4c(n3)-c3c(c(C(N)=O)nn3C)CC4)c2)CC1(C)C :: 3020

In the following, a different molecule is considered.
Which IC50 value belongs to "Cn1nc(C(N)=O)c2c1-c1nc(Nc3cc(N4CCN(C(=O)OC(C)(C)C)CC4)ccc3OC(F)(F)F)ncc1CC2" ? 1130

----------
# target system: Cyclin-dependent kinase 2/cyclin A (Homo sapiens)
# assay details: Inhibition of CDK2/Cyclin A
endpoint name: IC50 (nM)
State the answer as a number, implicitly in nM.

CN1CCCC1CCNc1ccc(OC(F)(F)F)c(Nc2ncc3c(n2)-c2c(c(C(N)=O)nn2C)CC3)c1 (stereo unspecified) :: 969
CN1CCC(Nc2ccc(OC(F)(F)F)c(Nc3ncc4c(n3)-c3c(c(C(N)=O)nn3C)CC4)c2)CC1 :: 1020

In the following, a different molecule is considered.
// map "Cn1nc(C(N)=O)c2c1-c1nc(Nc3cc(N)ccc3OC(F)(F)F)ncc1CC2" to recorded IC50 (system: Cyclin-dependent kinase 2/cyclin A (Homo sapiens)) 1180

----------
Parameter: pIC50. Scope: all listed entries.
# assay details: Inhibition of casein kinase 2
Note on pIC50: it is the negative log10 of concentration, concentration in mol/L.

Answered examples (3):
CN1CCN(c2ccc(OC(F)(F)F)c(Nc3ncc4c(n3)-c3c(c(C(N)=O)nn3CCF)CC4)c2)CC1 :: 6.87
CN1CCN(c2ccc(OC(F)(F)F)c(Nc3ncc4c(n3)-c3c(c(C(N)=O)nn3C)CC4)c2)CC1 :: 6.85
Cn1nc(C(N)=O)c2c1-c1nc(Nc3cc(N4CCNCC4)ccc3OC(F)(F)F)ncc1CC2 :: 7.23

In the following, a different compound is considered.
Which pIC50 value belongs to "C=Cn1nc(C(N)=O)c2c1-c1nc(Nc3cc(N4CCN(C)CC4)ccc3OC(F)(F)F)ncc1CC2" ? 7.16

----------
# assay details: Antiproliferative activity against human A2780/ADR cells after 72 hrs by CellTiter-Glo assay
# Format: functional, cell-based
endpoint name: pIC50
Note on pIC50: it is the negative log10 of concentration, concentration in mol/L.

Which pIC50 value belongs to "CN1CCN(c2ccc(OC(F)(F)F)c(Nc3ncc4c(n3)-c3c(c(C(N)=O)nn3C)CC4)c2)CC1" ? 7.29

----------
# assay details: Oral bioavailability in CD1 mouse at 10 mg/kg administered as single dose by LC/MS/MS analysis
# Format: ADME, organism-based
# condition description: in vivo
Parameter: bioavailability. Scope: all listed entries.
State the answer as a number, implicitly in %.

Answered examples (2):
C=Cn1nc(C(N)=O)c2c1-c1nc(Nc3cc(N4CCN(C)CC4)ccc3OC(F)(F)F)ncc1CC2 :: 29
CN1CCN(c2ccc(OC(F)(F)F)c(Nc3ncc4c(n3)-c3c(c(C(N)=O)nn3C)CC4)c2)CC1 :: 21

In the following, a different molecule is considered.
Which bioavailability value belongs to "CN1CCN(c2ccc(OC(F)(F)F)c(Nc3ncc4c(n3)-c3c(c(C(N)=O)nn3CCF)CC4)c2)CC1" ? 2

----------
# assay details: Antiproliferative activity against human 1A9PTX22 cells after 72 hrs by CellTiter-Glo assay
# Assay type: functional, cell-based
# condition description: 1A9/ptx-22, 72 h
endpoint name: pIC50
Note on pIC50: it is the negative log10 of concentration, concentration in mol/L.

Which pIC50 value belongs to "CN1CCN(c2ccc(OC(F)(F)F)c(Nc3ncc4c(n3)-c3c(c(C(N)=O)nn3C)CC4)c2)CC1" ? 7.42

----------
# assay details: Solubility of the compound at pH 7
# Type: physicochemical
# condition description: buffer
endpoint name: log10(solubility) (log10 of the value in µM)
Log10 applied to solubility; unit prior to transform: µM.

CCN1CCN(c2ccc(OC(F)(F)F)c(Nc3ncc4c(n3)-c3c(c(C(N)=O)nn3C)CC4)c2)CC1 :: 1.52
Cn1nc(C(N)=O)c2c1-c1nc(Nc3cc(N4CCC(N5CCCC5)CC4)ccc3OC(F)(F)F)ncc1CC2 :: 2.12
CN1CCN(c2ccc(OC(F)(F)F)c(Nc3ncc4c(n3)-c3c(c(C(N)=O)nn3CCCl)CC4)c2)CC1 :: 0.95
CN1CCN(c2ccc(OC(F)(F)F)c(Nc3ncc4c(n3)-c3c(c(C(N)=O)nn3CCF)CC4)c2)CC1 :: 1.26
Cn1nc(C(N)=O)c2c1-c1nc(Nc3cc(N)ccc3OC(F)(F)F)ncc1CC2 :: 1.49

Which log10(solubility) value belongs to "Cn1nc(C(N)=O)c2c1-c1nc(Nc3cc(N4CCNCC4)ccc3OC(F)(F)F)ncc1CC2" ? 2.06

Which log10(solubility) value belongs to "CN1C(C)(C)CC(Nc2ccc(OC(F)(F)F)c(Nc3ncc4c(n3)-c3c(c(C(N)=O)nn3C)CC4)c2)CC1(C)C" ? 2.17

----------
Parameter: IC50. Scope: all listed entries.
# target system: Cyclin-dependent kinase 2/cyclin A (Homo sapiens)
# assay details: Inhibition of CDK2/Cyclin A

Answered examples (7):
Cn1nc(C(N)=O)c2c1-c1nc(Nc3cc(NC4CCNC4)ccc3OC(F)(F)F)ncc1CC2 (stereo not drawn) :: 0.414 µM
CCn1nc(C(N)=O)c2c1-c1nc(Nc3cc(N4CCN(C)CC4)ccc3OC(F)(F)F)ncc1CC2 :: > 10 µM
CN1CCN(c2ccc(OC(F)(F)F)c(Nc3ncc4c(n3)-c3[nH]nc(C(N)=O)c3CC4)c2)CC1 :: > 10 µM
CN1CCN(c2ccc(OC(F)(F)F)c(Nc3ncc4c(n3)-c3c(c(C(N)=O)nn3CCF)CC4)c2)CC1 :: > 10 µM
CN1CCN(c2ccc(OC(F)(F)F)c(Nc3ncc4c(n3)-c3c(c(C(N)=O)nn3C)CC4)c2)CC1 :: > 10 µM
Cn1nc(C(N)=O)c2c1-c1nc(Nc3cc([N+]4([O-])CC[N+](C)([O-])CC4)ccc3OC(F)(F)F)ncc1CC2 (stereo not drawn) :: > 10 µM
Cn1nc(C(N)=O)c2c1-c1nc(Nc3ccccc3OC(F)(F)F)ncc1CC2 :: 1.76 µM

Which IC50 value belongs to "CN1CCCN(c2ccc(OC(F)(F)F)c(Nc3ncc4c(n3)-c3c(c(C(N)=O)nn3C)CC4)c2)CC1" ? > 10 µM
